- Tested on: SW-620 colon
- Method summary: NCI tumour cell line growth inhibition, 48 h; in the data active = GI50 below about 0.43 µM; inactive = the rest
Labels: active, inactive

Compound | Class assignment
CCn1cc(C(=O)N/N=C/c2ccc(Br)cc2)c(=O)c2cc(F)c(N3CCNC(C)C3)c(F)c21 (centres undefined) | inactive
Oc1c(Cl)cc(Cl)c2ccc(Cn3cc(-c4cc(F)cc(F)c4)nn3)nc12 | inactive
COc1cc(OC)cc(C2C(C#N)=C(N)Oc3c2ccc2ccc(O)cc32)c1 (centres undefined) | active
Cc1nc2ccccc2c(/C=C/c2ccc(Cl)cc2)c1C(=O)/C=C/c1ccc(F)cc1 | inactive
FC(F)(F)CNc1nccc(-c2cnn3ncccc23)n1 | inactive
COc1cccc2cc(N(C)c3ncnc4ccccc34)ccc12 | active
Oc1ccc(-c2cn3ccsc3n2)cc1O | inactive
CCN(CC)c1ccc2c(cc1=O)[C@@H](NC(C)=O)CCc1cc(OC)c(OC)c(OC)c1-2 | active
Cc1cc(I)cc(CN(C)CCN2CCOCC2)c1O | inactive

----------
- Tested on: NCI-H23 lung
- Method summary: NCI tumour cell line growth inhibition, 48 h; in the data active = GI50 below about 0.43 µM; inactive = the rest
Outcomes: active, inactive

Compound smiles | Class assignment
Oc1ccc(-c2cn3ccsc3n2)cc1O | inactive
CCC[CH2][Sn]([CH2]CCC)([O]C(=O)c1ccc(C)c(N)c1)[O]C(=O)c1ccc(C)c(N)c1 | active
ClC1=C(Cl)C(Cl)=C(Cl)C1=Cc1ccccc1 | inactive

----------
- Test system: 786-0 renal
- Method summary: NCI tumour cell line growth inhibition, 48 h; in the data active = GI50 below about 0.43 µM; inactive = the rest
Outcome codes: active, inactive

Molecule | Class assignment
COc1cc(NC(=O)c2ccc(C(F)(F)F)nc2Nc2ccc(Cl)cc2C)cc(OC)c1OC | inactive
Fc1ccc(-c2nnc3sc(-c4cc(Cl)cc(Cl)c4)nn23)cc1Cl | inactive
COc1cc2c(cc1OC)[Se]c1cc(OC)c(OC)cc1[Se]2 | inactive
O=C(NC1CCC(Br)CC1)C1CCCC(S(=O)(=O)NC2CCCCC2)C1 (stereo unspecified) | inactive
Cc1cc(I)cc(CN(C)CCN2CCOCC2)c1O | inactive
[N-]=[N+]=NCCCn1c2c(c3ccccc3c1=O)C(=O)c1cc(Br)ccc1-2 | inactive
COc1cnc2c(c1)C(=O)c1c-2n(CCCBr)c(=O)c2cc([N+](=O)[O-])ccc12 | active
Cc1ccc(C)c(COc2cc(NC(=O)c3ccc4c(c3)OCO4)ccc2N(C)S(C)(=O)=O)c1 | active
COc1ccc(C(O)c2cc3c(N)c(C(=O)Nc4cccc(OC)c4)sc3nc2C)cc1 (stereo unspecified) | inactive
O=C(O)c1sccc1O | inactive
c1ccc(CSc2nnc3c4c5c(sc4nc(-c4cccnc4)n23)CCCCCC5)cc1 | inactive
CCN(CC)c1ccc2c(cc1=O)[C@@H](NC(C)=O)CCc1cc(OC)c(OC)c(OC)c1-2 | inactive
COc1ccc(CN2C(=O)C(Cl)=C(Nc3cccc(O)c3)C2=O)cc1 | inactive
CCC[CH2][Sn]([CH2]CCC)([O]C(=O)c1ccc(C)c(N)c1)[O]C(=O)c1ccc(C)c(N)c1 | active
CC/C=C\C/C=C\C[C@H]1C/C=C2/C(=O)C=C[C@@H]2C/C=C\CCC(=O)O1 | inactive
CC(C)=NNc1ncnc2c1ncn2C1OC(CO)C(O)C1O (stereo unspecified) | inactive

----------
- Test system: NCI-H522 lung
- Method summary: NCI tumour cell line growth inhibition, 48 h; in the data active means GI50 below about 0.43 µM; inactive means the rest
Classes used: active, inactive

Compound | Class assignment
Cn1cc(C2=C(c3c4n(c5ccccc35)CCN(C(N)=S)C4)C(=O)NC2=O)c2ccccc21 | inactive
C[C@]12CC[C@H](OC3OC(O)C(O)C(O)C3O)C=C1CCC1C2CC[C@]2(C)[C@@H](c3ccc(=O)oc3)CC[C@]12O (stereo partly drawn) | active
CCC(=C/[C@H](C)C/C=C/C(C)=C/[C@@H](C)C(=O)[C@@H](C)[C@H](O)[C@@H](C)CC)/C=C/[C@@H]1OC(=O)C=C[C@@H]1C | active
N.N.NCCCCCCN.O=C([O-])CCl.O=C([O-])CCl.O=C([O-])CCl.O=C([O-])CCl.[Pt+4].[Pt+4] | inactive
COc1cc(NC(=O)c2ccc(C(F)(F)F)nc2Nc2ccc(Cl)cc2C)cc(OC)c1OC | inactive
O=C1Nc2ccccc2C1(c1c[nH]c2ccccc12)c1c[nH]c2ccccc12 | inactive
CC(=O)OC1CCC(OC(C)=O)[C@H]2[C@@H]1[C@@H]1S[C@H]2c2ccccc21 (stereo partly drawn) | inactive
COc1cc2c(cc1OC)[Se]c1cc(OC)c(OC)cc1[Se]2 | inactive
COc1cnc2c(c1)C(=O)c1c-2n(CCCBr)c(=O)c2cc([N+](=O)[O-])ccc12 | inactive
O=C(Nc1ccc(Oc2cccc(Cl)c2)c(Cl)c1)c1cnccn1 | active
Nc1c(C(=O)Nc2ccccn2)sc2nc3c(cc12)CCCCC3 | inactive
COc1cccc2cc(N(C)c3ncnc4ccccc34)ccc12 | active
[N-]=[N+]=NCCCn1c2c(c3ccccc3c1=O)C(=O)c1cc(Br)ccc1-2 | inactive
Cc1cc(I)cc(CN(C)CCN2CCOCC2)c1O | inactive
COc1cc(-c2nn(-c3ccc(NC(=O)NCCCNC(=O)c4ccccc4)cc3)cc2-c2ccncc2)ccc1Cl | active
CC(=O)Nc1ccc2c(C3=C(c4cn(C)c5ccccc45)C(=O)NC3=O)cn(C)c2c1 | active
CC(C)=NNc1ncnc2c1ncn2C1OC(CO)C(O)C1O (stereo not drawn) | active
FC(F)(F)CNc1nccc(-c2cnn3ncccc23)n1 | inactive

----------
- Tested on: HL-60(TB) leukemia
- Method summary: NCI tumour cell line growth inhibition, 48 h

Compound | TGI
CCOC(=O)C1(C(=O)OCC)OC(=O)NC2=C1CCCC2 | > 100 µM
CC(O)(CCCCCl)c1nc2ccccc2s1 (stereo not drawn) | > 100 µM
O=[N+]([O-])c1ccc2scc3c4ccccc4nc-3c2c1 | 5.26 µM

----------
- Tested on: XF 498 CNS
- Method summary: NCI tumour cell line growth inhibition, 48 h

Compound | Test system | TGI
C=CCN1C2Cc3cc(OC)c(OC)cc3C1Cc1cc(OC)c(OC)cc12 | XF 498 CNS | > 100 µM
O=C(O)CCC(NC(=O)c1ccc(Nc2nc3ccc(C(F)(F)F)cc3nc2-c2ccccc2)cc1)C(=O)O (configuration not stated) | XF 498 CNS | > 100 µM
O=S(=O)(c1ccccc1)C1CN2OC1(S(=O)(=O)c1ccccc1)CC21CCCCC1 (configuration not stated) | XF 498 CNS | > 100 µM
COC(=O)C(C/C=C(\C)c1ccccc1)C(C)=O (configuration not stated) | XF 498 CNS | > 100 µM
COc1cc2c(cc1OC)[Se]c1cc(OC)c(OC)cc1[Se]2 | XF 498 CNS | > 100 µM
O=[N+]([O-])c1nccn1COCCI | XF 498 CNS | > 100 µM
CSc1nc(SC)c2cnn(CC3CO3)c2n1 (configuration not stated) | XF 498 CNS | 45.4 µM
COC(=O)CCC1(NS(=O)(=O)c2ccc(C)cc2)CCC(C(C)(C)C)CC1 (configuration not stated) | XF 498 CNS | 30.7 µM
O=Cc1c(Cn2ccnc2)c2cc([N+](=O)[O-])ccc2n1Cc1ccccc1 | XF 498 CNS | > 100 µM
CCC1(O)C(=O)OCc2c1cc1n(c2=O)Cc2cc3ccc(CO)cc3nc2-1 (configuration not stated) | XF 498 CNS | 16.8 µM
CN1C(=O)N(C)C(N2CCCC2)c2c1nc1ccccn1c2=O (configuration not stated) | XF 498 CNS | > 100 µM
COCCCCCC(=O)CP(=O)(OC)OC | XF 498 CNS | > 100 µM

----------
Measured TGI by item
- Test system: SF-268 CNS
- Method summary: NCI tumour cell line growth inhibition, 48 h
Experimental endpoint: TGI

Compound | Experimental endpoint | Test result
COc1cc2c(cc1OCCCCCN1CCN(c3cc(=O)oc4ccccc34)CC1)N=C[C@@H]1CCCN1C2=O | TGI | 2.47 µM
O=C1[C@H]2ON(c3ccccc3)C(c3ccc(Cl)cc3Cl)[C@H]2C(=O)N1c1ccc(Cc2ccc(N3C(=O)[C@@H]4ON(c5ccccc5)C(c5ccc(Cl)cc5Cl)[C@@H]4C3=O)cc2)cc1 (some centres undefined) | TGI | > 100 µM
CCC(CN(C)C)C(=O)c1ccco1 (centres undefined) | TGI | > 100 µM
O=c1[nH]c2ccc(N=Cc3c(O)[nH]c4ccccc34)cc2[nH]1 | TGI | > 25 µM

----------
- System: HT29 colon
- Method summary: NCI tumour cell line growth inhibition, 48 h; in the data active = GI50 below about 0.43 µM; inactive = the rest
Outcome codes: active, inactive

Compound | Class assignment
CCN(CC)c1ccc2c(cc1=O)[C@@H](NC(C)=O)CCc1cc(OC)c(OC)c(OC)c1-2 | active
O=C(NC1CCC(Br)CC1)C1CCCC(S(=O)(=O)NC2CCCCC2)C1 (centres undefined) | inactive
CC/C=C\C/C=C\C[C@H]1C/C=C2/C(=O)C=C[C@@H]2C/C=C\CCC(=O)O1 | inactive
COc1cc2c(cc1OCCCCCN1CCN(c3cc(=O)oc4ccccc34)CC1)N=C[C@@H]1CCCN1C2=O | active
CC(=O)Nc1ccc2c(C3=C(c4cn(C)c5ccccc45)C(=O)NC3=O)cn(C)c2c1 | inactive
Cc1cc(Nc2ncc(F)c(N[C@H]3[C@@H](C(N)=O)[C@@H]4C=C[C@H]3C4)n2)ccc1N1CCN(C)CC1 | active
CCn1cc(C(=O)N/N=C/c2ccc(Br)cc2)c(=O)c2cc(F)c(N3CCNC(C)C3)c(F)c21 (centres undefined) | inactive
CC(C)=NNc1ncnc2c1ncn2C1OC(CO)C(O)C1O (centres undefined) | active
COc1cc(C(C)c2ccc3c(ccn3C)c2)cc(OC)c1OC (centres undefined) | active

Recorded values, source PubChem BioAssay (NCI).
